Reference source: PubChem BioAssay AID1963829

tested on: 935938-334-R-J1-PDC complex spheroid viability; test: Anticancer human tumor 935938-334-R-J1-PDC patient-derived small intestine adenocarcinoma cell line growth inhibition [POLQ]; conditions: second compound 1 µM; first compound 0.00316 µM; stronger effect = lower value
Criterion: viability, T/C strictly less than 90%. Met: Yes. Not met: No.

[
  {
    "molecule": "CCc1c2c(nc3ccc(O)cc13)-c1cc3c(c(=O)n1C2)COC(=O)[C@]3(O)CC + COC1C(OC(N)=O)C(O)C(Oc2ccc3c(O)c(NC(=O)c4ccc(O)c(CC=C(C)C)c4)c(=O)oc3c2C)OC1(C)C",
    "system-tested": "935938-334-R-J1-PDC complex spheroid viability",
    "class-label": "Yes"
  },
  {
    "molecule": "COc1cccc(OCCCN)c1-c1cc(Nc2cnc(C#N)cn2)n[nH]1 + COC1C(OC(N)=O)C(O)C(Oc2ccc3c(O)c(NC(=O)c4ccc(O)c(CC=C(C)C)c4)c(=O)oc3c2C)OC1(C)C",
    "system-tested": "935938-334-R-J1-PDC complex spheroid viability",
    "class-label": "No"
  },
  {
    "molecule": "CC[C@@]1(O)C(=O)OCc2c1cc1n(c2=O)Cc2cc3c(CN(C)C)c(O)ccc3nc2-1 + Cc1cccc(N(C)C(=O)C2C(O)CCN2c2nc(C)cc(C(F)(F)F)c2C#N)c1",
    "system-tested": "935938-334-R-J1-PDC complex spheroid viability",
    "class-label": "No"
  },
  {
    "molecule": "C=CCn1c(=O)c2cnc(Nc3ccc(N4CCN(C)CC4)cc3)nc2n1-c1cccc(C(C)(C)O)n1 + Nc1ccc(C#CCN(C(=O)Cc2ncc(C(F)(F)F)cc2C(F)(F)F)c2ccc(F)cc2)nn1",
    "system-tested": "935938-334-R-J1-PDC complex spheroid viability",
    "class-label": "Yes"
  }
]

* * *

tested on: 935938-334-R-J1-PDC complex spheroid viability; test: Anticancer human tumor 935938-334-R-J1-PDC cell line growth inhibition [POLQ]; settings: second compound 0.1 µM; first compound 0.1 µM; stronger effect = lower value;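 note: spheroids exposed to drugs for seven days before viability read; 100% = DMSO vehicle control wells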
Doc: threshold 80% (exclusive). Items with viability, T/C beneath it return Met; others return Not met.

[
  {
    "molecule": "CCCS(=O)(=O)Nc1ccc(F)c(C(=O)c2c[nH]c3ncc(-c4ccc(Cl)cc4)cc23)c1F + Nc1ccc(C#CCN(C(=O)Cc2ncc(C(F)(F)F)cc2C(F)(F)F)c2ccc(F)cc2)nn1",
    "class-label": "Not met"
  },
  {
    "molecule": "CC[C@@]1(O)C(=O)OCc2c1cc1n(c2=O)Cc2cc3c(CN(C)C)c(O)ccc3nc2-1 + COC1C(OC(N)=O)C(O)C(Oc2ccc3c(O)c(NC(=O)c4ccc(O)c(CC=C(C)C)c4)c(=O)oc3c2C)OC1(C)C",
    "class-label": "Met"
  },
  {
    "molecule": "CC1COCCN1c1cc(C2(O)CC3CCC(C2)O3)c2cnn(-c3ccn[nH]3)c2n1 (stereo unspecified) + Cc1cccc(N(C)C(=O)C2C(O)CCN2c2nc(C)cc(C(F)(F)F)c2C#N)c1",
    "class-label": "Not met"
  },
  {
    "molecule": "COc1cc2cc(C(=O)CCC(=O)O)sc2cc1OC + Nc1ccc(C#CCN(C(=O)Cc2ncc(C(F)(F)F)cc2C(F)(F)F)c2ccc(F)cc2)nn1",
    "class-label": "Not met"
  },
  {
    "molecule": "CC[C@@]1(O)C(=O)OCc2c1cc1n(c2=O)Cc2cc3c(CN(C)C)c(O)ccc3nc2-1 + Nc1ccc(C#CCN(C(=O)Cc2ncc(C(F)(F)F)cc2C(F)(F)F)c2ccc(F)cc2)nn1",
    "class-label": "Met"
  },
  {
    "molecule": "CC1COCCN1c1cc(-c2ccnn2C)c2ccnc(-c3ccn[nH]3)c2n1 (stereo unspecified) + Nc1ccc(C#CCN(C(=O)Cc2ncc(C(F)(F)F)cc2C(F)(F)F)c2ccc(F)cc2)nn1",
    "class-label": "Met"
  },
  {
    "molecule": "Nc1ccn(C2OC(CO)C(O)C2(F)F)c(=O)n1 (stereo unspecified) + Nc1ccc(C#CCN(C(=O)Cc2ncc(C(F)(F)F)cc2C(F)(F)F)c2ccc(F)cc2)nn1",
    "class-label": "Met"
  },
  {
    "molecule": "CCCS(=O)(=O)Nc1ccc(F)c(C(=O)c2c[nH]c3ncc(-c4ccc(Cl)cc4)cc23)c1F + Cc1cccc(N(C)C(=O)C2C(O)CCN2c2nc(C)cc(C(F)(F)F)c2C#N)c1",
    "class-label": "Not met"
  },
  {
    "molecule": "CC1COCCN1c1cc(C2(S(C)(=N)=O)CC2)nc(-c2ccnc3[nH]ccc23)n1 (stereo unspecified) + Cc1cccc(N(C)C(=O)C2C(O)CCN2c2nc(C)cc(C(F)(F)F)c2C#N)c1",
    "class-label": "Not met"
  },
  {
    "molecule": "COc1cccc(OCCCN)c1-c1cc(Nc2cnc(C#N)cn2)n[nH]1 + COC1C(OC(N)=O)C(O)C(Oc2ccc3c(O)c(NC(=O)c4ccc(O)c(CC=C(C)C)c4)c(=O)oc3c2C)OC1(C)C",
    "class-label": "Met"
  },
  {
    "molecule": "O=C(c1cc(Cc2n[nH]c(=O)c3ccccc23)ccc1F)N1CCN(C(=O)C2CC2)CC1 + COC1C(OC(N)=O)C(O)C(Oc2ccc3c(O)c(NC(=O)c4ccc(O)c(CC=C(C)C)c4)c(=O)oc3c2C)OC1(C)C",
    "class-label": "Not met"
  },
  {
    "molecule": "CCc1cc2c(N3CCc4c(cc(Cn5ccnc5)cc4-c4cn(C)nc4C(F)(F)F)C3=O)ccnc2c(OC)n1 + Cc1cccc(N(C)C(=O)C2C(O)CCN2c2nc(C)cc(C(F)(F)F)c2C#N)c1",
    "class-label": "Met"
  },
  {
    "molecule": "O=c1[nH]cc(F)c(=O)[nH]1 + COC1C(OC(N)=O)C(O)C(Oc2ccc3c(O)c(NC(=O)c4ccc(O)c(CC=C(C)C)c4)c(=O)oc3c2C)OC1(C)C",
    "class-label": "Not met"
  },
  {
    "molecule": "CCc1c2c(nc3ccc(O)cc13)-c1cc3c(c(=O)n1C2)COC(=O)[C@]3(O)CC + COC1C(OC(N)=O)C(O)C(Oc2ccc3c(O)c(NC(=O)c4ccc(O)c(CC=C(C)C)c4)c(=O)oc3c2C)OC1(C)C",
    "class-label": "Met"
  },
  {
    "molecule": "CNCc1ccc(-c2[nH]c3cc(F)cc4c3c2CCNC4=O)cc1 + Cc1cccc(N(C)C(=O)C2C(O)CCN2c2nc(C)cc(C(F)(F)F)c2C#N)c1",
    "class-label": "Met"
  },
  {
    "molecule": "CC[C@@]1(O)C(=O)OCc2c1cc1n(c2=O)Cc2cc3c(CN(C)C)c(O)ccc3nc2-1 + Cc1cccc(N(C)C(=O)C2C(O)CCN2c2nc(C)cc(C(F)(F)F)c2C#N)c1",
    "class-label": "Not met"
  },
  {
    "molecule": "C=CC(=O)N1CCN(c2nc(=O)n(-c3c(C)ccnc3C(C)C)c3nc(-c4c(O)cccc4F)c(F)cc23)C(C)C1 (stereo unspecified) + Nc1ccc(C#CCN(C(=O)Cc2ncc(C(F)(F)F)cc2C(F)(F)F)c2ccc(F)cc2)nn1",
    "class-label": "Not met"
  },
  {
    "molecule": "CCc1cc2c(N3CCc4c(cc(Cn5ccnc5)cc4-c4cn(C)nc4C(F)(F)F)C3=O)cc(C)nc2c(OC)n1 + COC1C(OC(N)=O)C(O)C(Oc2ccc3c(O)c(NC(=O)c4ccc(O)c(CC=C(C)C)c4)c(=O)oc3c2C)OC1(C)C",
    "class-label": "Not met"
  },
  {
    "molecule": "CC1COCCN1c1cc(C2(S(C)(=N)=O)CC2)nc(-c2ccnc3[nH]ccc23)n1 (stereo unspecified) + COC1C(OC(N)=O)C(O)C(Oc2ccc3c(O)c(NC(=O)c4ccc(O)c(CC=C(C)C)c4)c(=O)oc3c2C)OC1(C)C",
    "class-label": "Not met"
  },
  {
    "molecule": "COc1cccc2c1C(=O)c1c(O)c3c(c(O)c1C2=O)CC(O)(C(=O)CO)CC3OC1CC(N)C(O)C(C)O1 (stereo unspecified) + COC1C(OC(N)=O)C(O)C(Oc2ccc3c(O)c(NC(=O)c4ccc(O)c(CC=C(C)C)c4)c(=O)oc3c2C)OC1(C)C",
    "class-label": "Not met"
  }
]

* * *

tested on: 935938-334-R-J1-PDC complex spheroid viability; experiment: Anticancer human tumor 935938-334-R-J1-PDC cell line growth inhibition [POLQ]; settings: second compound 3.16 µM; first compound 1 µM; stronger effect = lower value;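 note: spheroids exposed to drugs for seven days before viability read; 100% = DMSO vehicle control wells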
measured-quantity: viability, T/C (%)

[
  {
    "compound": "CC1COCCN1c1cc(C2(O)CC3CCC(C2)O3)c2cnn(-c3ccn[nH]3)c2n1 (stereo not given) + COC1C(OC(N)=O)C(O)C(Oc2ccc3c(O)c(NC(=O)c4ccc(O)c(CC=C(C)C)c4)c(=O)oc3c2C)OC1(C)C",
    "system-tested": "935938-334-R-J1-PDC complex spheroid viability",
    "value-observed": 20.9
  },
  {
    "compound": "CC(C)n1c(=O)n(C)c2cnc3cc(F)c(-c4ccc(OCCCN5CCCCC5)nc4)cc3c21 + Cc1cccc(N(C)C(=O)C2C(O)CCN2c2nc(C)cc(C(F)(F)F)c2C#N)c1",
    "system-tested": "935938-334-R-J1-PDC complex spheroid viability",
    "value-observed": 98.1
  },
  {
    "compound": "CC1COCCN1c1cc(-c2ccnn2C)c2ccnc(-c3ccn[nH]3)c2n1 (stereo not given) + Nc1ccc(C#CCN(C(=O)Cc2ncc(C(F)(F)F)cc2C(F)(F)F)c2ccc(F)cc2)nn1",
    "system-tested": "935938-334-R-J1-PDC complex spheroid viability",
    "value-observed": 16.1
  },
  {
    "compound": "COc1cccc(OCCCN)c1-c1cc(Nc2cnc(C#N)cn2)n[nH]1 + COC1C(OC(N)=O)C(O)C(Oc2ccc3c(O)c(NC(=O)c4ccc(O)c(CC=C(C)C)c4)c(=O)oc3c2C)OC1(C)C",
    "system-tested": "935938-334-R-J1-PDC complex spheroid viability",
    "value-observed": 9
  },
  {
    "compound": "CC1COCCN1c1cc(-c2ccnn2C)c2ccnc(-c3ccn[nH]3)c2n1 (stereo not given) + Cc1cccc(N(C)C(=O)C2C(O)CCN2c2nc(C)cc(C(F)(F)F)c2C#N)c1",
    "system-tested": "935938-334-R-J1-PDC complex spheroid viability",
    "value-observed": 17.2
  }
]
